Reference source: patent US6723841

# targetOrSystem: human CRF1 receptor (human) (UniProt P34998)
# Sequence (P34998 24-415): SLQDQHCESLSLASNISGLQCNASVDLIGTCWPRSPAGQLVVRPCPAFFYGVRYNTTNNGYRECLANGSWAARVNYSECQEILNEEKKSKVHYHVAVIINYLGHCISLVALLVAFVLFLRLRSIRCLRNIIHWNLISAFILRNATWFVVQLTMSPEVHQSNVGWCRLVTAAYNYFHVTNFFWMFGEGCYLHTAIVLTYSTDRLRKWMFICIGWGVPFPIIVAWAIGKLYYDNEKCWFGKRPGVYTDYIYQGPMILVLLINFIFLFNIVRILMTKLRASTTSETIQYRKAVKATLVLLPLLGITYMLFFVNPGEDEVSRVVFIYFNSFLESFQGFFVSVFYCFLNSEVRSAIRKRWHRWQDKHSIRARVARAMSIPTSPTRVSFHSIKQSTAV
# assayProcedure: cell-based or functional assay
Ends that are not written are not given here.
metric: EC50 of adenylate cyclase stimulation (cAMP) (nM)
Field: numeric (nM). Do not append units.

Recorded result, QGPPISIDLSLELLRKMIEIEKQEKEKQQAANNRLLLDTI (peptide, UniProt P01144 1-40, looked up) [Sauvagine] , EC50 of adenylate cyclase stimulation (cAMP): 3

Recorded result, SEEPPISLDLTFHLLREVLEMARAEQLAQQAHSNRKLMEII (peptide, UniProt P06850 154-194, looked up) [rat/human CRF] , EC50 of adenylate cyclase stimulation (cAMP): 4

Recorded result, SQEPPISLDLTFHLLREVLEMTKADQLAQQAHNNRKLLDIA (peptide, UniProt Q95MI6 148-188, looked up) [bovine CRF] , EC50 of adenylate cyclase stimulation (cAMP): 30

Recorded result, SQEPPISLDLTFHLLREVLEMTKADQLAQQAHNNRKLLDIA-OH (peptide, UniProt Q95MI6 148-188, looked up) [deamidated bovine CRF] , EC50 of adenylate cyclase stimulation (cAMP): 1000

Recorded result, SQEPPISLDLTFHLLREVLEMTKADQLAQQAHSNRKLLDIA (peptide, UniProt P01142 148-188, looked up, ends and bridges not checked) [ovine CRF] , EC50 of adenylate cyclase stimulation (cAMP): 10
